FYI, the data here is from the supplement of paper PMC10567573.

B1: TRIM43 (parent)
chain: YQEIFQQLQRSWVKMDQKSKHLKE

- Variants of: B1
- test-description: protein stability index of a GFP-peptide fusion (GPS, HEK-293T) (PSI 1-6); higher = more stable;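 note: lentivirally expressed fusions sorted by FACS into six bins by GFP to DsRed ratio, PSI derived from sequencing read proportions per bin multiplied by bin number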
- settings: c terminus: a fixed tail appended
Label Yes for high-side protein stability index (at or above 2) and No for low-side protein stability index (below it).

## Input Evaluate "YQEIFQQWQRSWVKMDQKSKHLKE" : protein stability index at minimum 2?
## Output Yes

## Input Evaluate "YQEIFQQLQRSWVKMDQKNKHLKE" : protein stability index at minimum 2?
## Output Yes

## Input Evaluate "YQEIFQQLQRSWVKMDQKSKHLKQ" : protein stability index at minimum 2?
## Output No

## Input Evaluate "YQEIFQQLQRAWVKMDQKSKHLKE" : protein stability index at minimum 2?
## Output No

## Input Evaluate "YQEIFQQLQRSWVVMDQKSKHLKE" : protein stability index at minimum 2?
## Output Yes

## Input Evaluate "YQEIFQQLQRSWVKMDQQSKHLKE" : protein stability index at minimum 2?
## Output Yes

## Input Evaluate "YQEIFQQLQRPWVKMDQKSKHLKE" : protein stability index at minimum 2?
## Output Yes

## Input Evaluate "YQEIFQQLQRSWVKMPQKSKHLKE" : protein stability index at minimum 2?
## Output Yes

## Input Evaluate "YQEMFQQLQRSWVKMDQKSKHLKE" : protein stability index at minimum 2?
## Output No

## Input Evaluate "YQEIFQQLKRSWVKMDQKSKHLKE" : protein stability index at minimum 2?
## Output No

## Input Evaluate "YQEIFQQLQRRWVKMDQKSKHLKE" : protein stability index at minimum 2?
## Output No

## Input Evaluate "YQEIFQQLQRKWVKMDQKSKHLKE" : protein stability index at minimum 2?
## Output No

## Input Evaluate "YQEIFQQLQRSWVKMDQKSKALKE" : protein stability index at minimum 2?
## Output Yes

## Input Evaluate "YQEIFQQLQRSWVKMIQKSKHLKE" : protein stability index at minimum 2?
## Output Yes

## Input Evaluate "YQEIFQQLARSWVKMDQKSKHLKE" : protein stability index at minimum 2?
## Output No

## Input Evaluate "YQEIFHQLQRSWVKMDQKSKHLKE" : protein stability index at minimum 2?
## Output Yes

## Input Evaluate "YQEIFQQLQRSWVKMDQKSKHLPE" : protein stability index at minimum 2?
## Output Yes

## Input Evaluate "YQEIFQQLQRSWVFMDQKSKHLKE" : protein stability index at minimum 2?
## Output Yes

## Input Evaluate "YQEIFQQNQRSWVKMDQKSKHLKE" : protein stability index at minimum 2?
## Output Yes

## Input Evaluate "YQEIFQQLQDSWVKMDQKSKHLKE" : protein stability index at minimum 2?
## Output Yes

## Input Evaluate "GQEIFQQLQRSWVKMDQKSKHLKE" : protein stability index at minimum 2?
## Output Yes

## Input Evaluate "YQEIFQQLQRSNVKMDQKSKHLKE" : protein stability index at minimum 2?
## Output Yes

## Input Evaluate "YQEIFQQLQRSWVKMDSKSKHLKE" : protein stability index at minimum 2?
## Output Yes

## Input Evaluate "YQEIFQQLERSWVKMDQKSKHLKE" : protein stability index at minimum 2?
## Output Yes

## Input Evaluate "YQEIFQQLQRSWVKMDQKKKHLKE" : protein stability index at minimum 2?
## Output No

## Input Evaluate "YQEIFQQLQRSWVKMDQKGKHLKE" : protein stability index at minimum 2?
## Output No

## Input Evaluate "YQEIFQQLQRSWVKMKQKSKHLKE" : protein stability index at minimum 2?
## Output Yes

## Input Evaluate "YQEIFQQLQRSWVKSDQKSKHLKE" : protein stability index at minimum 2?
## Output Yes

## Input Evaluate "YQEICQQLQRSWVKMDQKSKHLKE" : protein stability index at minimum 2?
## Output Yes

## Input Evaluate "YQSIFQQLQRSWVKMDQKSKHLKE" : protein stability index at minimum 2?
## Output Yes

## Input Evaluate "YQEIFQQLLRSWVKMDQKSKHLKE" : protein stability index at minimum 2?
## Output No

## Input Evaluate "YQEIFQQLQRSWVKMAQKSKHLKE" : protein stability index at minimum 2?
## Output Yes

## Input Evaluate "YQECFQQLQRSWVKMDQKSKHLKE" : protein stability index at minimum 2?
## Output No

## Input Evaluate "YQEIFQQLQRSWVKMDYKSKHLKE" : protein stability index at minimum 2?
## Output No

## Input Evaluate "YQEIFQQLQRSWDKMDQKSKHLKE" : protein stability index at minimum 2?
## Output Yes

## Input Evaluate "YQEIFRQLQRSWVKMDQKSKHLKE" : protein stability index at minimum 2?
## Output Yes

## Input Evaluate "YQEIFQQLQRSWVAMDQKSKHLKE" : protein stability index at minimum 2?
## Output Yes

## Input Evaluate "LQEIFQQLQRSWVKMDQKSKHLKE" : protein stability index at minimum 2?
## Output No

## Input Evaluate "YQEIFQQLQRSWVKCDQKSKHLKE" : protein stability index at minimum 2?
## Output Yes

## Input Evaluate "YQEIFQQLQRSWVKMDQKSKHLKG" : protein stability index at minimum 2?
## Output No
